# Tested on: 292921-168-R-J2-PDC KRAS tumor spheroid viability;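 also: drug exposure lasted seven days after spheroids formed for three days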
# procedure-text: Anticancer human tumor 292921-168-R-J2-PDC patient-derived pancreatic carcinoma cell line growth inhibition [KRAS2]
# conditions: second compound 0.316 µM; first compound 0.1 µM; stronger effect = lower value; spheroids with HUVEC and MSC
# Text: Multicellular complex tumor spheroid response to RAS pathway inhibitors in combination with a targeted agents in patient-derived cell lines with oncogenic KRAS variants from multiple cancer types A high-throughput screen of multi-cell type tumor spheroids was designed to identify active combinations of targeted small molecules and KRAS pathway inhibitors. […] Compounds. […] If the clinical Cmax for an agent had not been determined, the highest concentration tested was 10 microM. […]
Labelling: viability, T/C reported below 50% becomes Fulfilled; at or above becomes Not fulfilled.

{"columns": ["compound", "label-value"],
 "data": [
  ["CCN1CCN(Cc2ccc(Nc3ncc(F)c(-c4cc(F)c5nc(C)n(C(C)C)c5c4)n3)nc2)CC1 + C=CC(=O)N1CCN(c2nc(=O)n(-c3c(C)ccnc3C(C)C)c3nc(-c4c(O)cccc4F)c(F)cc23)C(C)C1", "Fulfilled"],
  ["CN(C)C/C=C/C(=O)Nc1cc2c(Nc3ccc(F)c(Cl)c3)ncnc2cc1O[C@H]1CCOC1 + COc1cc2nc(C)nc(NC(C)c3cc(N)cc(C(F)(F)F)c3)c2cc1OC1CCOC1", "Not fulfilled"],
  ["Cn1ncnc1[C@H]1c2n[nH]c(=O)c3cc(F)cc(c23)N[C@@H]1c1ccc(F)cc1 + CC1OCC2(CCN(c3cnc(Sc4ccnc(N)c4Cl)c(N)n3)CC2)C1N", "Not fulfilled"],
  ["COC(=O)c1ccc2c(C(=Nc3ccc(N(C)C(=O)CN4CCN(C)CC4)cc3)c3ccccc3)c(O)[nH]c2c1 + COc1cc2nc(C)nc(NC(C)c3cc(N)cc(C(F)(F)F)c3)c2cc1OC1CCOC1", "Not fulfilled"],
  ["COc1cc2nccc(Oc3ccc(NC(=O)C4(C(=O)Nc5ccc(F)cc5)CC4)cc3)c2cc1OC + CC1OCC2(CCN(c3cnc(Sc4ccnc(N)c4Cl)c(N)n3)CC2)C1N", "Not fulfilled"],
  ["CCNC(=O)CC1N=C(c2ccc(Cl)cc2)c2cc(OC)ccc2-n2c(C)nnc21 (configuration not stated) + C=CC(=O)N1CCN(c2nc(OCC3CCCN3C)nc3c2CCN(c2cccc4cccc(C)c24)C3)CC1CC#N", "Not fulfilled"],
  ["O=C(c1cc(Cc2n[nH]c(=O)c3ccccc23)ccc1F)N1CCN(C(=O)C2CC2)CC1 + CC1OCC2(CCN(c3cnc(Sc4ccnc(N)c4Cl)c(N)n3)CC2)C1N", "Not fulfilled"],
  ["COc1cc(Nc2ncc3c(n2)-c2ccc(Cl)cc2C(c2c(F)cccc2OC)=NC3)ccc1C(=O)O + C=CC(=O)N1CCN(c2nc(OCC3CCCN3C)nc3c2CCN(c2cccc4cccc(C)c24)C3)CC1CC#N", "Fulfilled"],
  ["O=C(c1cc(Cc2n[nH]c(=O)c3ccccc23)ccc1F)N1CCN(C(=O)C2CC2)CC1 + C=CC(=O)N1CCN(c2nc(OCC3CCCN3C)nc3c2CCN(c2cccc4cccc(C)c24)C3)CC1CC#N", "Not fulfilled"],
  ["CN(C)C/C=C/C(=O)Nc1cc2c(Nc3ccc(F)c(Cl)c3)ncnc2cc1O[C@H]1CCOC1 + C=CC(=O)N1CCN(c2nc(=O)n(-c3c(C)ccnc3C(C)C)c3nc(-c4c(O)cccc4F)c(F)cc23)C(C)C1", "Not fulfilled"],
  ["CC(=O)OC12COC1CC(O)C1(C)C(=O)C(O)C3=C(C)C(OC(=O)C(O)C(NC(=O)OC(C)(C)C)c4ccccc4)CC(O)(C(OC(=O)c4ccccc4)C21)C3(C)C (configuration not stated) + C=CC(=O)N1CCN(c2nc(=O)n(-c3c(C)ccnc3C(C)C)c3nc(-c4c(O)cccc4F)c(F)cc23)C(C)C1", "Fulfilled"],
  ["CCNC(=O)CC1N=C(c2ccc(Cl)cc2)c2cc(OC)ccc2-n2c(C)nnc21 (configuration not stated) + CC1OCC2(CCN(c3cnc(Sc4ccnc(N)c4Cl)c(N)n3)CC2)C1N", "Fulfilled"]
]}

# credit: PubChem BioAssay AID1963870
